B1: LINE1-mini (parent)
chain: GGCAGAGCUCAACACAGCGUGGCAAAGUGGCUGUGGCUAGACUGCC

variants of: B1; assay: self-cleavage, relative activity (ratio to wild type); higher = more cleavage; in vitro, sequencing; the parent is a self-cleaving ribozyme
self-cleavage below 0.09 gives n; self-cleavage at or above it gives y.

A selection of reference data follows.
(Q) Item C23A G40A with self-cleavage of 0.09 or above?
(A) y

(Q) Query A24U A39U next
(A) y

(Q) Can you check A6U G27U next?
(A) y

(Q) # repeat for G36U A39G
(A) n

(Q) Also need G17U U28C , thanks.
(A) y

Continuing:
(Q) Does the reported self-cleavage for U28C U32C fall at or above the 0.09 mark?
(A) y

(Q) Same question for U20A A25G please.
(A) y

(Q) Try A4G G44C next.
(A) n
